Hello, the source for this data is patent US12780800B1, in case you need it.

Target: LPA1 (Homo sapiens, UniProt Q92633)
Construct: ProLink (PK) beta-galactosidase enzyme-fragment tag
Sequence (Q92633 whole entry, the tested form may be a part): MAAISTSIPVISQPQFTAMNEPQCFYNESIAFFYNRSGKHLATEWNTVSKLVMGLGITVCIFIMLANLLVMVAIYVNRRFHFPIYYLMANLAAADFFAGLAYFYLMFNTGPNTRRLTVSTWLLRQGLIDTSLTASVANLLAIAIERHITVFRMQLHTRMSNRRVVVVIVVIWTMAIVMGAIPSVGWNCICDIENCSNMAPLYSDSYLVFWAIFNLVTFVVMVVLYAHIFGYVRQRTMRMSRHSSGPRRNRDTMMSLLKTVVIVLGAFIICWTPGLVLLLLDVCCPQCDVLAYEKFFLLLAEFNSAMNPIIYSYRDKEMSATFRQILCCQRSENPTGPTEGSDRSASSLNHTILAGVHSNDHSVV
Assay: LPA1 calcium flux assay (LPA1 functional antagonist assay)
Details: PathHunter CHO-K1 EDG2 β-Arrestin cell line; calcium indicator dye; stimulated with EC80 concentration of LPA; FLIPR Tetra
pIC50: −log10 of the molar value.
MEASUREMENT TYPE: pIC50

| MOLECULE | READING |
| --- | --- |
| CCc1nc(-c2nnn(C)c2COc2nccc(C3CCC3)n2)ccc1N1CC(CC(=O)O)CCC1=O (single isomer, unassigned) [Example 92] | < 5.30 |
| CCCn1ccc(=O)c(OCc2c(-c3ccc(N4C[C@@H](CC(=O)O)CC(F)(F)C4)c(CC)n3)nnn2C)n1 | < 5.30 |
| Cn1nnc(-c2ccc(N3CCC[C@H](CC(=O)O)C3)c(C(F)F)n2)c1Cn1nncc1CC1CC1 | > 7.00 |
| CCCN(C)C(=O)OCc1c(-c2ccc(CN3CCOC(C(=O)O)C3)c(C)n2)nnn1C (stereo not drawn) | < 5.30 |
| CCCc1ccc(=O)n(Cc2c(-c3ccc(N4C[C@@H](CC(=O)O)CC(F)(F)C4)c(C)n3)nnn2C)n1 | 5.30 to 6.30 |

Q: Which pIC50 is reported for this molecule? `CCCN(C)C(=O)OCc1c(-c2ccc(N3CCC[C@H](CC(=O)O)C3)c(C)n2)nnn1C`
A: 5.30 to 6.30

Q: Which pIC50 is reported for this molecule? CCc1nc(-c2nnn(C)c2CNc2nccc(C3CCC3)n2)ccc1CN1CC(C(=O)O)CC(F)(F)C1 (single isomer, unassigned) [Example 162]
A: > 7.00

Q: Which pIC50 is reported for this molecule? `CCc1nc(-c2nnn(C)c2Cn2nc(C3CC3)ccc2=O)ccc1N1C[C@@H](CC(=O)O)CC(F)(F)C1`
A: 6.30 to 7.00

Q: Which pIC50 is reported for this molecule? CCc1nc(-c2nnn(C)c2CN2C[C@H](CC3CC3)OC2=O)ccc1N1C[C@H](CC(=O)O)CC(F)(F)C1 (stereo in doubt)
A: 5.30 to 6.30
